# MEASUREMENT TARGET: Mouse TMEM16A (Mus musculus, UniProt Q8BHY3)
# Construct: expressed in transfected cells; host or cells: HEK-293T
# PROTOCOL NOTES: Whole-cell concentration-jump protocol separating A9C block and activation, 300 nM [Ca2+]i
# Type: cell-based
# MEASUREMENT CONDITIONS: 300 nM [Ca2+]i, extracellular A9C, Woodhull fit; read-out: K i(0)
QUANTITY MEASURED: pKi
Answers are plain numbers, as −log10 of the molar value.

Bench note: what pKi did O=C(O)c1c2ccccc2cc2ccccc12 show?
2.08

====

# MEASUREMENT TARGET: Mouse TMEM16A (Mus musculus, UniProt Q8BHY3)
# Construct: expressed in transfected cells; host or cells: HEK-293T
# PROTOCOL NOTES: Whole-cell [A9C]ext-inhibition relationship (Hill and Woodhull fits), 12.5 μM [Ca2+]i
# Assay type: cell-based
# MEASUREMENT CONDITIONS: V m 60, 12.5 μM [Ca2+]i, [A9C]ext; unit inferred; read-out: K i (Hill fit of inhibition)
QUANTITY MEASURED: pKi
Answers are plain numbers, as −log10 of the molar value.

Given O=C(O)c1c2ccccc2cc2ccccc12 , state its recorded pKi.
4.17

====

# MEASUREMENT TARGET: Mouse TMEM16A (Mus musculus)
# Construct: expressed in transfected cells; host or cells: HEK-293T
# PROTOCOL NOTES: Whole-cell [A9C]ext-inhibition relationship (Hill and Woodhull fits), 12.5 μM [Ca2+]i
# Assay type: cell-based
# MEASUREMENT CONDITIONS: V m 40, 12.5 μM [Ca2+]i, [A9C]ext; unit inferred; read-out: K i (Hill fit of inhibition)
QUANTITY MEASURED: Ki (µM)
Answers are plain numbers, in µM.

Fill blank: measured Ki of the compound O=C(O)c1c2ccccc2cc2ccccc12 [A9C, Anthracene‐9‐carboxylic acid] is ____.
113

====

# MEASUREMENT TARGET: Mouse TMEM16A (Mus musculus, UniProt Q8BHY3)
# Construct: expressed in transfected cells; host or cells: HEK-293T
# Sequence (Q8BHY3 1-960): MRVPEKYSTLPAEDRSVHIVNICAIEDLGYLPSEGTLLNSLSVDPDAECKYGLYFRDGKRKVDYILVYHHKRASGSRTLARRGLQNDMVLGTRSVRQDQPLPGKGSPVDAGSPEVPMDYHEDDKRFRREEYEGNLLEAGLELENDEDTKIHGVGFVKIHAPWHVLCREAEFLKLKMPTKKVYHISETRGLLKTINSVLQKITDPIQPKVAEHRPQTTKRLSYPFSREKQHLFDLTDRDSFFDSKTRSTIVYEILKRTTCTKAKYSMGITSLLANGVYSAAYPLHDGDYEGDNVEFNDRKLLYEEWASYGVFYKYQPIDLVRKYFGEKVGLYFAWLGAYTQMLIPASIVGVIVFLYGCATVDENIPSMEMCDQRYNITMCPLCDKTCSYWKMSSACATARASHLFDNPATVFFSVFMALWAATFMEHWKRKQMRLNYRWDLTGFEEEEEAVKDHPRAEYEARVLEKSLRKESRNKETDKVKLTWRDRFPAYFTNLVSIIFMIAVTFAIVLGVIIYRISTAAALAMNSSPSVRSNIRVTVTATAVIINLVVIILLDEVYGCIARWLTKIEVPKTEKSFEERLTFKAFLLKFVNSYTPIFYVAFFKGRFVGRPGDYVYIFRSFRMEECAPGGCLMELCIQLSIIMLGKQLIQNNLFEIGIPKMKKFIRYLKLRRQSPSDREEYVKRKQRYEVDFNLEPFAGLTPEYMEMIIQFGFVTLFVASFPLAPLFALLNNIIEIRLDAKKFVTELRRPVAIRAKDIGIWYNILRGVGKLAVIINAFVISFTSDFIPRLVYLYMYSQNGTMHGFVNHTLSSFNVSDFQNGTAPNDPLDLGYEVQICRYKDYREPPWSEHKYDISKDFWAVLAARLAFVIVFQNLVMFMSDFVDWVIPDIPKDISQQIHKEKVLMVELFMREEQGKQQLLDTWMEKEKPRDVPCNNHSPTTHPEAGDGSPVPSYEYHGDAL
# PROTOCOL NOTES: Whole-cell [A9C]ext-inhibition relationship (Hill and Woodhull fits), 12.5 μM [Ca2+]i
# Type: cell-based
# MEASUREMENT CONDITIONS: V m 120, 12.5 μM [Ca2+]i, [A9C]ext; unit inferred; read-out: K i (Hill fit of inhibition)
QUANTITY MEASURED: pKi
Give bare numbers, as −log10 of the molar value.

Which pKi value is on record for O=C(O)c1c2ccccc2cc2ccccc12 ?
4.70
